B1: Retinoic acid receptor RXR-alpha, residues 132 to 208; numbered along this chain, P19793 (parent)
chain: KHICAICGDRSSGKHYGVYSCEGCKGFFKRTVRKDLTYTCRDNKDCLIDKRQRNRCQYCRYQKCLAMGMKREAVQEE

Variants of: B1
Test: abundance fitness (aPCA) (normalised: wild type 0, dead -1); higher = more abundant; growth selection in yeast, the domain comes from the species named
Conditions: Homo sapiens
measured quantity: abundance fitness
Answer with a number only.

Look over these answered cases.
Please report the recorded abundance fitness for KHICAICGDRSSGKHYGVYSCEGNKGFFKRTVRKDLTYTCRDNKDCLIDKRQRNRCQYCRYQKCLAMGMKREAVQEE [C24N] .
-1.18

What do we get for KHICAICKDRSSGKHYGVYSCEGCKGFFKRTVRKDLTYTCRDNKDCLIDKRQRNRCQYCRYQKCLAMGMKREAVQEE [G8K] ?
-0.053

What do we get for KHICAICGDRSSGKHYGVYSHEGCKGFFKRTVRKDLTYTCRDNKDCLIDKRQRNRCQYCRYQKCLAMGMKREAVQEE [C21H] ?
-0.933

What do we get for KHICAICGDRSSGKHYGVYSCEGCKGFFKRTVRKDLTYTCRDNKDCLIDPRQRNRCQYCRYQKCLAMGMKREAVQEE [K50P] ?
-0.029

What do we get for KHICAICGRRSSGKHYGVYSCEGCKGFFKRTVRKDLTYTCRDNKDCLIDKRQRNRCQYCRYQKCLAMGMKREAVQEE [D9R] ?
-0.243

What do we get for KHICAICMDRSSGKHYGVYSCEGCKGFFKRTVRKDLTYTCRDNKDCLIDKRQRNRCQYCRYQKCLAMGMKREAVQEE [G8M] ?
-0.07

What do we get for KHICAICGDRSSGKHYGVYSCEGCKGFFKRTVRKDLTYTCRDNKDCSIDKRQRNRCQYCRYQKCLAMGMKREAVQEE [L47S] ?
-0.122

What do we get for KHICAICGDRSSMKHYGVYSCEGCKGFFKRTVRKDLTYTCRDNKDCLIDKRQRNRCQYCRYQKCLAMGMKREAVQEE [G13M] ?
-0.042

More entries:
Please report the recorded abundance fitness for KHICAICGDRSSGKHYGVYSCEGCKGFFKRTVRKDDTYTCRDNKDCLIDKRQRNRCQYCRYQKCLAMGMKREAVQEE [L36D] .
0.053

What do we get for KHICAICGDRRSGKHYGVYSCEGCKGFFKRTVRKDLTYTCRDNKDCLIDKRQRNRCQYCRYQKCLAMGMKREAVQEE [S11R] ?
-0.162

What do we get for KHICAICGDRSSGKHDGVYSCEGCKGFFKRTVRKDLTYTCRDNKDCLIDKRQRNRCQYCRYQKCLAMGMKREAVQEE [Y16D] ?
0.046

What do we get for KHICAICGDRSSQKHYGVYSCEGCKGFFKRTVRKDLTYTCRDNKDCLIDKRQRNRCQYCRYQKCLAMGMKREAVQEE [G13Q] ?
-0.009
